- experimental details: yeast display, Sf9 membrane polyspecificity reagent, FACS + sequencing; frameworks hold sequencing errors
value kind: polyreactivity (PSR sort gate)

Example results:
construct sequence	polyreactivity (PSR sort gate)
QVQLVESGGGLVQAGGSLRLSCAASGRTFRWYAMGWSRPAPGKERELVASISRGGSKSYADSVKGRFTISRDNAKNTVYLQMNSLKPEDTAVYYCNAKYRLEMDLGQGTQVTVSS	high polyreactivity
QVQLVESGGGLVQAGGSLRLSCAASGSTFFLYDKGWYRQAPGKERELVAAITLSGGSTYYADSVKGRFTISRDNAKNTVYLQMNSLNPEDTAVYYCADKRHGSEVGRGRDYWGQGTQVTVSS	high polyreactivity
QVQLVESGGGLVQAGGSLRLSCAASGSTFAGNAMGWYRQAPGKERELVAAITSGTGTHYADSVKGRFSISRDNAKNTVYLQMNSLKPEDTAVYYCAAEVWSWAGIWGYEYWGQGTQVTVSS	low polyreactivity
QVQLVESAVGLVQAGGRLRLSCAASGRIFVFNAMGWYMQAPGKERELVAAITASSTRTYYADSVKGRFTISRDNAKNTVYLQMNSLNPEDPAVYYCARDIRQYILYGRVDYWGQGTQVTVSS	low polyreactivity

GET /value?item= QVQLVESGGGLVQAGGSLRLSSAASGRIFIRNAMGWYRQAPGKERELVAAISWSGGRTYYADSVKGRFTISRDNAKNTVYLQMNSLKPEDTAVYYCAALRYAFQYGLSYYWGQGTQVTVSS &field=polyreactivity (PSR sort gate) returns high polyreactivity
